Data origin, for the record: patent US20100317698A1

Would you mind telling me the reported melting point of each entry?

Consider the compound shown here: Cc1cccc(-c2cncc(OCC3(CN)CC3)c2)c1.Cl.Cl What is its recorded melting point?
215 to 218 °C

Give its melting point value. Item: Cc1ccccc1-c1cc(OCC2(CN)CC2)cnc1Cl.Cl
130 to 132 °C

Look at this compound and give its reported melting point. CNC1(COc2cncc(-c3ccc(C)cc3)c2)CC1.Cl.Cl [Example 2]
218 to 223 °C

Name the reported melting point value associated with the compound Cl.NCC1(COc2cnc(Cl)c(-c3cc(C(F)(F)F)cc(C(F)(F)F)c3)c2)CC1
182 to 188 °C

Please look up its melting point: CNC1(COc2cnc(Cl)c(-c3cc(Cl)cc(Cl)c3)c2)CC1.Cl
186 to 188 °C

----------
Provide the recorded melting point for the entries that follow.

Give the measured melting point of CNC1(COc2cnc(Cl)c(-c3cccc(C#N)c3)c2)CC1.Cl .
228 to 232 °C

Returns the measured melting point for the input compound. Input: Cl.Cl.NCC1(COc2cnc(Cl)c(-c3cccnc3)c2)CC1
210 to 215 °C

So what's the measured melting point for this one? Cl.Cl.NCC1(COc2cnc(Cl)c(-c3ccccc3)c2)CC1
130 to 135 °C

Name the recorded melting point for COc1ccc(-c2cc(OCC3(N(C)C)CC3)cnc2Cl)cc1.Cl .
208 to 210 °C

Item CNC1(COc2cnc(Cl)c(-c3ccc(CO)cc3)c2)CC1.Cl.Cl has what recorded melting point?
142 to 146 °C

Which measured melting point value corresponds to CNC1(COc2cnc(Cl)c(-c3ccc(C(N)=O)cc3)c2)CC1.Cl ?
130 °C

I would be grateful if you could share the reported melting point for Cl.Cl.NCC1(COc2cnc(-c3ccc(Cl)cc3)c(-c3ccc(Cl)cc3)c2)CC1 .
220 to 225 °C

Any idea what its melting point is? The compound is Cl.Cl.NCC1(COc2cnc(-c3ccc([N+](=O)[O-])cc3)c(-c3ccc([N+](=O)[O-])cc3)c2)CC1
215 to 220 °C

Entry under review: CNC1(COc2cnc(Cl)c(-c3cccc(NC(C)=O)c3)c2)CC1.Cl . Reported melting point?
220 to 222 °C

// returns reported melting point for input Cl.Cl.NCC1(COc2cncc(-c3cccc([N+](=O)[O-])c3)c2)CC1
220 to 225 °C

----------
Kindly state melting point for each of the entries shown.

Record request: melting point value, item COc1ccc(-c2cncc(OCC3(CN)CC3)c2)cc1.Cl.Cl
215 to 220 °C

So what does the record say about melting point for CNC1(CN(C)c2cnc(Cl)c(-c3ccc(C(=O)O)cc3)c2)CC1.Cl.Cl ?
138 to 145 °C

Suppose we examine the compound CNC1(COc2cnc(-c3ccc(C#N)cc3)c(-c3ccc(C#N)cc3)c2)CC1.Cl.Cl ; what melting point value has been reported?
205 to 208 °C

Quick one: melting point for Cl.NCC1(COc2cnc(Cl)c(-c3cccc([N+](=O)[O-])c3)c2)CC1 ?
229 to 232 °C

Item CCc1ccc(-c2cc(OCC3(CN)CC3)cnc2Cl)cc1.Cl.Cl has what recorded melting point?
112 to 114 °C

----------
For each of the compounds below, state its melting point.

Could you tell me which melting point is on file for CNC1(COc2cnc(Cl)c(-c3ccc(O)cc3)c2)CC1.Cl.Cl ?
216 to 220 °C

If you can, please state the reported melting point value of CNC1(COc2cnc(C)c(-c3ccncc3)c2)CC1.Cl.Cl.Cl [Example 81] .
130 to 138 °C

So what does the record say about melting point for Cl.Cl.NCC1(COc2cnc(Cl)c(-c3ccncc3)c2)CC1 ?
125 to 130 °C

----------
property: melting point

Give its melting point value. Item: CNC1(COc2cnc(Cl)c(-c3ccc(N=C=S)cc3)c2)CC1.Cl
172 to 176 °C

Consider the compound Cc1ncc(OCC2(CN)CC2)cc1-c1cccc(Cl)c1.Cl.Cl and give its measured melting point.
223 to 227 °C

What value of melting point has been recorded for this entry: CNC1(COc2cnc(C)c(-c3cccc(C#N)c3)c2)CC1.Cl.Cl
238 to 242 °C

Give the measured melting point of CNC1(CN(C)c2cnc(C)c(-c3ccc(N)cc3)c2)CC1.Cl.Cl.Cl .
235 to 240 °C

Item Cl.NCC1(COc2cnc(Cl)c(-c3ccc([N+](=O)[O-])cc3)c2)CC1 has what recorded melting point?
145 to 150 °C

Could you share which melting point value was measured for CNC1(CNc2cnc(Cl)c(-c3cccc(C(=O)O)c3)c2)CC1.Cl.Cl ?
140 to 145 °C

Quick check: melting point of CNC1(COc2cnc(Cl)c(-c3cc(Cl)ccc3Cl)c2)CC1.Cl ?
140 to 142 °C

Entry CNC1(CN(C)c2cnc(Cl)c(-c3ccncc3)c2)CC1.Cl.Cl : reported melting point = ?
110 to 120 °C

Quick one: melting point for CNC1(CNc2cnc(Cl)c(-c3cccnc3)c2)CC1.Cl.Cl.Cl ?
180 to 185 °C

Can you look up the measured melting point of CNC1(CNc2cnc(C)c(-c3ccc(C(=O)O)cc3)c2)CC1.Cl.Cl for me?
241 to 245 °C

Consider the compound shown here: CNC1(COc2cnc(F)c(-c3cccc(C#N)c3)c2)CC1.Cl What is its recorded melting point?
211 to 215 °C

Record request: melting point value, item CCc1ccc(-c2cncc(OCC3(CN)CC3)c2)cc1.Cl.Cl
197 to 200 °C

What value of melting point has been reported for the following compound? CNC1(COc2cncc(-c3cc(OC)c(OC)c(OC)c3)c2)CC1.Cl
116 to 120 °C

Any idea what melting point was measured for CNC1(COc2cncc(-c3cccc(C#N)c3)c2)CC1.Cl.Cl ?
110 to 120 °C

Look at this compound and give its reported melting point. CNC1(COc2cnc(Cl)c(-c3ccc(NC(=O)CCl)cc3)c2)CC1.Cl
140 to 144 °C

// query melting point value for entry CNC1(CNc2cnc(Cl)c(-c3ccncc3)c2)CC1.Cl.Cl [Example 106]
100 to 110 °C

Data request, read-out melting point, for Cl.Cl.NCC1(COc2cncc(-c3ccc(Cl)cc3)c2)CC1
208 to 213 °C

What melting point value was documented for this compound, Cl.NCC1(COc2cnc(F)c(-c3cccc(Cl)c3)c2)CC1 ?
126 to 130 °C

Returns the measured melting point for the input compound. Input: CNC1(CNc2cnc(Cl)c(-c3ccc(C(=O)O)cc3)c2)CC1.Cl.Cl
175 to 182 °C

Query (compound): CNC1(COc2cnc(Cl)c(-c3cc(F)ccc3F)c2)CC1.Cl ; field requested: melting point
140 to 142 °C

Name the reported melting point value associated with the compound Cl.Cl.NCC1(COc2cncc(-c3cc(F)ccc3F)c2)CC1
188 to 192 °C

Item CNC1(CNc2cnc(C)c(-c3ccc(N)cc3)c2)CC1.Cl.Cl.Cl has what recorded melting point?
190 to 200 °C

// melting point lookup, key: Cc1cccc(-c2cc(OCC3(CN)CC3)cnc2Cl)c1.Cl
152 to 154 °C

Item under review: CNC1(CNc2cnc(C)c(-c3ccncc3)c2)CC1.Cl.Cl.Cl . Reported melting point?
240 to 248 °C

Reported melting point, compound Cl.Cl.NCC1(COc2cnc(F)c(-c3ccc(N)cc3)c2)CC1 : ____
225 to 230 °C

// lookup melting point for Cl.Cl.NCC1(COc2cnc(Cl)c(-c3ccc(N)cc3)c2)CC1
240 to 243 °C

Look up melting point for this compound: CNC1(COc2cnc(Cl)c(-c3ccc(SC)cc3)c2)CC1.Cl.Cl
144 to 148 °C

Consider the compound Cl.Cl.NCC1(COc2cncc(-c3cc(Cl)ccc3Cl)c2)CC1 and give its measured melting point.
195 to 200 °C

Given CNC1(COc2cncc(-c3cc(C(F)(F)F)cc(C(F)(F)F)c3)c2)CC1.Cl , state its recorded melting point.
132 to 136 °C

// returns reported melting point for input Cl.NCC1(COc2cnc(Cl)c(-c3cccc(Cl)c3)c2)CC1
182 to 184 °C

Tell me the measured melting point of CNC1(CN(C)c2cnc(C)c(-c3ccncc3)c2)CC1.Cl.Cl.Cl , please.
182 to 187 °C

So what does the record say about melting point for Cc1ncc(OCC2(CN)CC2)cc1-c1ccc(N)cc1.Cl.Cl.Cl ?
245 to 250 °C

// lookup melting point for Cl.NCC1(COc2cnc(Cl)c(-c3c(Cl)cccc3Cl)c2)CC1
182 to 186 °C

Given the entry Cl.Cl.NCC1(COc2cncc(-c3cccc(F)c3)c2)CC1 , report its measured melting point.
210 to 214 °C

Requested field: melting point. Item: CNC1(CNc2cnc(Cl)c(-c3ccc(N)cc3)c2)CC1.Cl.Cl
190 to 196 °C

Given CNC1(COc2cnc(F)c(-c3ccc(C#N)cc3)c2)CC1.Cl , state its recorded melting point.
90 to 105 °C

// melting point lookup, key: CNC1(COc2cnc(C)c(-c3ccc(C#N)cc3)c2)CC1.Cl.Cl
220 to 224 °C

Any idea what its melting point is? The compound is COc1cc(-c2cc(OCC3(CN)CC3)cnc2Cl)cc(OC)c1OC.Cl
138 to 140 °C

Would you kindly share the measured melting point for Cc1ncc(OCC2(CN)CC2)cc1-c1cccc(N)c1.Cl.Cl.Cl ?
222 to 228 °C

Query: melting point; subject: Cl.NCC1(COc2cnc(F)c(-c3ccc(Cl)cc3)c2)CC1
55 to 60 °C

Entry under review: CNC1(COc2cncc(-c3ccccc3C)c2)CC1.Cl.Cl . Reported melting point?
192 to 196 °C

Which melting point value belongs to CNC1(COc2cnc(F)c(-c3ccc(C(=O)O)cc3)c2)CC1.Cl.Cl ?
211 to 215 °C

Fill blank: measured melting point of the compound COc1ccc(-c2cc(OCC3(N)CC3)cnc2Cl)cc1.Cl.Cl is ____.
207 to 211 °C

Consider the compound CNC1(COc2cnc(Cl)c(-c3ccc(C#N)cc3)c2)CC1.Cl [Example 18] and give its measured melting point.
215 to 220 °C
